Every entry's value here was drawn from patent US20210253725A1.

Provide the recorded Functional assay IL-8 for the entries that follow.
# targetOrTestSystem: T1, CD134 expressed on the cell surface of HT1080_OX40 cells (human, UniProt P43489 29-277); also: test concentration or dose not given here
# T1 sequence (looked up): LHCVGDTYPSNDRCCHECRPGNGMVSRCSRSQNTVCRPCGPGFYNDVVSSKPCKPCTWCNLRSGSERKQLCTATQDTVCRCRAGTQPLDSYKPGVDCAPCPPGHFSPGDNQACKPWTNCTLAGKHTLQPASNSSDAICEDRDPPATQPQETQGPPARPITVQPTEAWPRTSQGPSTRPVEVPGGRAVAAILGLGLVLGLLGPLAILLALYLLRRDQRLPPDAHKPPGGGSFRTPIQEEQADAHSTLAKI
# testName: cell-based or functional assay
Answers are plain numbers, in abs. corr..

[
  {
    "binder": "P018.S.11.A.A03 (antibody, V domains shown, V regions on human Ig constant parts; also called AB134_20) VH: QSLEESGGDLVKPGASLTLPCTASGFTLSGYWMCWVRQAPGKGLEWIGCIYNGDGSTYYASWAKGRFTISKTSSTTVTLQMTSLTAADTATYFCARDSNGWGAYGLWGPGTLVTVSS VL: AIEMTQTPSSVSAAVGGTVTIDCQASQSIGSYLSWYQQKPGQPPKLLIYDASDLASGVPSRFSGSGSGTEFTLTISGVQSDDAATYYCQGGYYSSATEIAFGGGTEVVVK",
    "assayMetric": "Functional assay IL-8",
    "quantityUnit": "abs. corr.",
    "numericReadout": 1.38
  }
]

Please look at the following binder next.
Endpoint output: Functional assay IL-8 of P018.S.12.A.C01 (antibody, V domains shown, V regions on human Ig constant parts; also called AB134_61) VH: QEQLKESGGGLVTPGGTLTLTCTASGFTFSSHAMGWVRQAPGKGLEWIGKIYDDGTTFYANWAKGRFTISRTSTTVDLKMTSLTTEDTATYFCLRGYNSGFNFWGQGTLVTVSS VL: AQVLTQTPASVSAAVGGTVTISCQSSESVYNNNFLAWYQQKPGQPPKLLIYLASTLASGVPSRFSGSGSGTEFTLTISDLDSDDAATYYCAGGYDDNVYGFGGGTEVVVK . Value?
-0.026
